Data origin, for the record: ChEMBL document CHEMBL1151030

- system.tested: 3-hydroxy-3-methylglutaryl-coenzyme A reductase (Homo sapiens, UniProt P04035)
- Sequence (P04035 whole entry): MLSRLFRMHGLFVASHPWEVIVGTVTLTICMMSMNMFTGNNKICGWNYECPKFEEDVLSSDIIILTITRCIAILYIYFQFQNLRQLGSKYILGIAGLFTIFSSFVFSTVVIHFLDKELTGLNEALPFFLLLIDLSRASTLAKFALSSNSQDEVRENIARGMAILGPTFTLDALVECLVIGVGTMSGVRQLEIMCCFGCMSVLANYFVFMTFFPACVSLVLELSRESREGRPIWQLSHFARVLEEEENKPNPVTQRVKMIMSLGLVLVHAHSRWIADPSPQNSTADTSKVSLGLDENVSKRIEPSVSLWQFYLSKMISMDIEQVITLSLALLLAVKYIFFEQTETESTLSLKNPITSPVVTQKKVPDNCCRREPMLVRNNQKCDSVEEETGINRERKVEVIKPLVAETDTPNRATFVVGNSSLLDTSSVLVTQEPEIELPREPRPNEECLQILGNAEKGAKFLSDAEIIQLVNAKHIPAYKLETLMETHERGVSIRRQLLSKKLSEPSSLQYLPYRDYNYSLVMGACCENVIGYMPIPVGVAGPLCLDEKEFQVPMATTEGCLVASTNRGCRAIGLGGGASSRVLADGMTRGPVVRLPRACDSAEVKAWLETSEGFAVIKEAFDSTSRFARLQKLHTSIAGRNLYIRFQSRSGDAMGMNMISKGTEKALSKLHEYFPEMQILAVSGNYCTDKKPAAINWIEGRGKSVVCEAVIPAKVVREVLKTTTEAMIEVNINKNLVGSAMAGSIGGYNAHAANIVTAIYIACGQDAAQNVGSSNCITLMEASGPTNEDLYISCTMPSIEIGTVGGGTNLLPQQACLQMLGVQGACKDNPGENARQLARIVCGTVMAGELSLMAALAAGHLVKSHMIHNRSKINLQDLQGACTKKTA
- run.description: Compound was evaluated for inhibitory activity against HMG-CoA reductase in adrenal cell preparation
- Type: cell-based
endpoint: IC50 (nM)

Cn1nnnc1C(/C=C/[C@@H](O)C[C@@H](O)CC(=O)O)=C(c1ccc(F)cc1)c1ccc(F)cc1 : 1600

* * *

- system.tested: UniProt Q01237
- Sequence (Q01237 whole entry): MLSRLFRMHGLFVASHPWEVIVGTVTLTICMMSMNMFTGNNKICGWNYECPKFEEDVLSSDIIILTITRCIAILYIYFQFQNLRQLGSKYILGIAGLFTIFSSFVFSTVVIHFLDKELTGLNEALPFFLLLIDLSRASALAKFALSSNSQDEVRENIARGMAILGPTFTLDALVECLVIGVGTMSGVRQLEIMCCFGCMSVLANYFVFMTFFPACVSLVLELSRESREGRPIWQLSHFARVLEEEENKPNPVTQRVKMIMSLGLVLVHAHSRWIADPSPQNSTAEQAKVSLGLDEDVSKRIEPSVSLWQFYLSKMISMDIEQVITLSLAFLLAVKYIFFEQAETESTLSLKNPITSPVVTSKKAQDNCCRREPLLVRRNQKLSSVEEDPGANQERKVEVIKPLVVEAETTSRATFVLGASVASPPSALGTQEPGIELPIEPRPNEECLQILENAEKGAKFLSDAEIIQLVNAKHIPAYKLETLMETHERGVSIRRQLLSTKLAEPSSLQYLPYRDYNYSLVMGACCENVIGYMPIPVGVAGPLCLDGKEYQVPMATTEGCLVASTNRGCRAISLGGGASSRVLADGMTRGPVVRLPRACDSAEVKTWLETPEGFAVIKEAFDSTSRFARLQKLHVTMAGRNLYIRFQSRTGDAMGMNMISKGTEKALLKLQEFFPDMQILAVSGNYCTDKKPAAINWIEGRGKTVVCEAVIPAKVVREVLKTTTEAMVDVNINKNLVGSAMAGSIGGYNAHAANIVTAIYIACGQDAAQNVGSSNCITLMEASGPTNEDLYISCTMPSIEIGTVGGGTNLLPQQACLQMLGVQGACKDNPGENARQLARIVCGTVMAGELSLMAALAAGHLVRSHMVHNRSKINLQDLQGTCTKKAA
- run.description: In vitro inhibitory activity against isolated enzyme HMG-CoA reductase
pIC50: −log10 of the molar value.
endpoint: pIC50

Cc1nnnn1C(/C=C/[C@@H](O)C[C@@H](O)CC(=O)O)=C(c1ccc(F)cc1)c1ccc(F)cc1 : 6.20
O=C(O)C[C@H](O)C[C@H](O)/C=C/C(=C(c1ccc(F)cc1)c1ccc(F)cc1)n1cnnn1 : 6.92
Cn1nnnc1C(/C=C/[C@@H](O)C[C@@H](O)CC(=O)O)=C(c1ccc(F)cc1)c1ccc(F)cc1 : 7.37
CC[C@H](C)C(=O)O[C@H]1C[C@@H](C)C=C2C=C[C@H](C)[C@H](CC[C@@H]3C[C@@H](O)CC(=O)O3)[C@H]21 : 7.57

* * *

- system.tested: 3-hydroxy-3-methylglutaryl-coenzyme A reductase (Rattus norvegicus, UniProt P51639)
- run.description: Compound was evaluated for inhibitory activity against HMG-CoA reductase in spleen cell preparation
- Assay type: tissue-based
endpoint: IC50 (µM)

Cn1nnnc1C(/C=C/[C@@H](O)C[C@@H](O)CC(=O)O)=C(c1ccc(F)cc1)c1ccc(F)cc1 : 3.2

* * *

- system.tested: 3-hydroxy-3-methylglutaryl-coenzyme A reductase (Rattus norvegicus, UniProt P51639)
- run.description: Compound was evaluated for inhibitory activity against HMG-CoA reductase in testes cell preparation
- Assay type: tissue-based, Testis
pIC50: −log10 of the molar value.
endpoint: pIC50

Cn1nnnc1C(/C=C/[C@@H](O)C[C@@H](O)CC(=O)O)=C(c1ccc(F)cc1)c1ccc(F)cc1 : 5.74

* * *

# pIC50 per record follows
- system.tested: 3-hydroxy-3-methylglutaryl-coenzyme A reductase (Rattus norvegicus)
- Sequence (P51639 whole entry): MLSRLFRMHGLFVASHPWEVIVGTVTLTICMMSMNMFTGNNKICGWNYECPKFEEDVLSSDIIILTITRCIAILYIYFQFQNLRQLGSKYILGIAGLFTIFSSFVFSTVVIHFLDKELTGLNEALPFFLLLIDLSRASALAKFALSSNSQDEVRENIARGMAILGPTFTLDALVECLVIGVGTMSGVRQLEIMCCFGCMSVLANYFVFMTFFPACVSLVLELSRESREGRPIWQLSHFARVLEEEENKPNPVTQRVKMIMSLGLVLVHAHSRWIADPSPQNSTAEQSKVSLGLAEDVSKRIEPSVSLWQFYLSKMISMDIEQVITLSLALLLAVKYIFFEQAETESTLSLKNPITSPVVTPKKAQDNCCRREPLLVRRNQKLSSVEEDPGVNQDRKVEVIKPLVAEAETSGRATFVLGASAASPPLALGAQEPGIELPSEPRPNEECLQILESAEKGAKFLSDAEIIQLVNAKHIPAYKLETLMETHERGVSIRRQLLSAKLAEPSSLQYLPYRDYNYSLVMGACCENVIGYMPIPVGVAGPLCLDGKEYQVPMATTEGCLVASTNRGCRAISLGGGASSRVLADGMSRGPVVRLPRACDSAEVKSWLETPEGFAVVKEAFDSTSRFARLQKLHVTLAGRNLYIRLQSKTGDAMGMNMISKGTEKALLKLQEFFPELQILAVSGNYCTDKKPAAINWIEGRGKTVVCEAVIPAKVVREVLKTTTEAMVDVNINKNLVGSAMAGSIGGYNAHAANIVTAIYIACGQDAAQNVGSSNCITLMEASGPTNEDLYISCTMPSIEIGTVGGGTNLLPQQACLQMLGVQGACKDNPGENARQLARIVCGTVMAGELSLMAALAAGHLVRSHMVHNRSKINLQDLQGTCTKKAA
- run.description: Compound was evaluated for inhibitory activity against HMG-CoA reductase from rat hepatocyte
- Format: cell-based
pIC50: −log10 of the molar value.
endpoint: pIC50

Cc1nnnn1C(/C=C/[C@@H](O)C[C@@H](O)CC(=O)O)=C(c1ccc(F)cc1)c1ccc(F)cc1 : 7.00
O=C(O)C[C@H](O)C[C@H](O)/C=C/C(=C(c1ccc(F)cc1)c1ccc(F)cc1)n1cnnn1 : 7.70
